FYI, the data here is from ChEMBL document CHEMBL2407035.

assay.procedure: Inhibition of porcine kidney […] alkaline phosphatase using p-NPP as substrate treated 10 mins before substrate addition measured after 30 mins by spectrophotometric assay
Parameters: species or system Sus scrofa
pKi: −log10 of the molar value.
measurement.label: pKi

>>> df
                                    compound  measurement_label  recorded_number
 0  CCOC1Oc2c(Br)cc(Br)cc2C(=O)/C1=C\Nc1ccc(S(N)(=O)=O)cc1 (stereo not given)                pKi             4.26
 1  CCOC1Oc2ccc(Br)cc2C(=O)/C1=C\Nc1ccc(S(N)(=O)=O)cc1 (stereo not given)                pKi             4.35
 2  CCOC1Oc2ccccc2C(=O)/C1=C\Nc1cccc(S(N)(=O)=O)c1 (stereo not given)                pKi             4.38
 3  CCOC1Oc2ccccc2C(=O)/C1=C\Nc1ccc(S(N)(=O)=O)cc1 (stereo not given)                pKi             4.96
 4  CCOC1Oc2c(Br)cc(Br)cc2C(=O)/C1=C\Nc1ccccc1S(N)(=O)=O (stereo not given)                pKi             4.93
 5  CCOC1Oc2ccccc2C(=O)/C1=C/Nc1ccc(S(=O)(=O)Nc2nnc(C)s2)cc1 (stereo not given)                pKi             7.10
 6  CCOC1Oc2ccc(CC)cc2C(=O)/C1=C\Nc1ccc(S(N)(=O)=O)cc1 (stereo not given)                pKi             4.16
 7  CCOC1Oc2ccc(F)cc2C(=O)/C1=C\Nc1ccc(S(N)(=O)=O)cc1 (stereo not given)                pKi             4.18
 8  CCOC1Oc2ccc(CC)cc2C(=O)/C1=C\Nc1ccccc1S(N)(=O)=O (stereo not given)                pKi             4.74
 9  CCOC1Oc2ccc(Br)cc2C(=O)/C1=C\Nc1cccc(S(N)(=O)=O)c1 (stereo not given)                pKi             4.29
10  CCOC1Oc2ccccc2C(=O)/C1=C/Nc1ccc(S(=O)(=O)Nc2cc(OC)nc(OC)n2)cc1 (stereo not given)                pKi             4.45
11  CCOC1Oc2ccc(CC)cc2C(=O)/C1=C\Nc1cccc(S(N)(=O)=O)c1 (stereo not given)                pKi             4.70
12  O=c1c(C2Nc3ccccc3S(=O)(=O)N2)coc2ccccc12 (stereo not given)                pKi             4.67
13  CCOC1Oc2c(Br)cc(Br)cc2C(=O)/C1=C\Nc1cccc(S(N)(=O)=O)c1 (stereo not given)                pKi             4.17
14  CCOC1Oc2ccc(Br)cc2C(=O)/C1=C/Nc1ccc(S(=O)(=O)Nc2ccccn2)cc1 (stereo not given)                pKi             4.13
15  CCOC1Oc2ccc(F)cc2C(=O)/C1=C/Nc1ccc(S(=O)(=O)Nc2nnc(C)s2)cc1 (stereo not given)                pKi             4.50
16  CCOC1Oc2ccccc2C(=O)/C1=C/Nc1ccc(S(=O)(=O)Nc2ccccn2)cc1 (stereo not given)                pKi             4.67
17  CCOC1Oc2ccc(F)cc2C(=O)/C1=C\Nc1cccc(S(N)(=O)=O)c1 (stereo not given)                pKi             4.70
18  CCOC1Oc2ccccc2C(=O)/C1=C/Nc1ccc(S(=O)(=O)Nc2ccc(OC)nn2)cc1 (stereo not given)                pKi             4.28
19  O=c1c(C2Nc3ccccc3S(=O)(=O)N2)coc2ccc(F)cc12 (stereo not given)                pKi             5.55
